Biological target: human ether-à-go-go-related gene (hERG) potassium channel (human, UniProt Q12809)
Sequence (Q12809 whole entry, looked up): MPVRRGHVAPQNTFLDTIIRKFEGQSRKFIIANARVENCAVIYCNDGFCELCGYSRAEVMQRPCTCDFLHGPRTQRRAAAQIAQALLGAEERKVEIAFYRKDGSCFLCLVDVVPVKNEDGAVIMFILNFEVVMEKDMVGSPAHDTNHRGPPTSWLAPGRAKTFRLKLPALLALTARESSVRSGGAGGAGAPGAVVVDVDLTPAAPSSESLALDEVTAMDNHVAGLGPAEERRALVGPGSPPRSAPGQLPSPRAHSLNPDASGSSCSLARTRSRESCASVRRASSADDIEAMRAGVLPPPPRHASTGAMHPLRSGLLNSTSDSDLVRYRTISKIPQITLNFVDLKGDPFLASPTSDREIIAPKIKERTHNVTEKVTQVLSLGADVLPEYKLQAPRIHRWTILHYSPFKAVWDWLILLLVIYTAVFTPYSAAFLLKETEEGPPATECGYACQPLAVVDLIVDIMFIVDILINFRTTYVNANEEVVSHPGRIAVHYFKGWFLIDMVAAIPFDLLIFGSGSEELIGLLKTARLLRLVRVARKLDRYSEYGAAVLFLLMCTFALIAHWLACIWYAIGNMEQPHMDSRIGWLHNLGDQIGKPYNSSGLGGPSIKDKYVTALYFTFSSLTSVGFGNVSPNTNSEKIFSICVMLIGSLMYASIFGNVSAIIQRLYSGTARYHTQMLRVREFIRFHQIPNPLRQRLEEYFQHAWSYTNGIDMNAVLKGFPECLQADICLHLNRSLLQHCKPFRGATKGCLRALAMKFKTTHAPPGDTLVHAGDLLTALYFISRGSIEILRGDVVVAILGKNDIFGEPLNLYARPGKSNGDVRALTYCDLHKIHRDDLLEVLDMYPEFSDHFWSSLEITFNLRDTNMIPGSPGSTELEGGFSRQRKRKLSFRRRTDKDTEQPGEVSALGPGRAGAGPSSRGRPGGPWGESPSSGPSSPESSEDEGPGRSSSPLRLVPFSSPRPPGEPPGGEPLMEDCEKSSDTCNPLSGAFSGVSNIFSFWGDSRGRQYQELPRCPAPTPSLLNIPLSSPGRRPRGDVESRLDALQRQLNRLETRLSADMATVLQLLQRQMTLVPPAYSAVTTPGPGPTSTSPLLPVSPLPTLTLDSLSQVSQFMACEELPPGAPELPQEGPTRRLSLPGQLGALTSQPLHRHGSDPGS
Experiment: primary screen, population patch clamp on CHO cells stably expressing hERG; higher = less effect of the substance
Out of some 310,000 compounds screened, about 14,000 (4.5%) showed an effect of 50% or more. The effect is printed as a negative number. The full list was thinned out, with strong results kept by preference.
Kindly supply the reported hERG current change (%, negative = inhibition) at 10uM values for the records listed here.
Give bare numbers, in %.

Worked set:
[[record]]
compound = "O=C(CSc1nnc(CN2CCOCC2)n1-c1ccc(Cl)cc1)Nc1ccc2c(c1)OCO2"
recorded_measurement = -9.87

[[record]]
compound = "CCOC(=O)c1[nH]ncc1CN1CCCC(C(=O)c2cccc(OC(C)C)c2)C1 (centres unmarked)"
recorded_measurement = -42.1

[[record]]
compound = "CCCC(=O)Nc1cccc(NC(=O)c2ccc3c(c2)OCO3)c1"
recorded_measurement = -52.3


Provide each entry's hERG current change (%, negative = inhibition) at 10uM from the list below.
1. NS(=O)(=O)c1cccc(NC(=O)CC2(CC(=O)O)CCCC2)c1
2. COCCn1c(=N)c(C(=O)NCc2ccco2)cc2c(=O)n3ccccc3nc21
3. Fc1ccc2[nH]c3c(N4CCN(C5CCCCC5)CC4)ncnc3c2c1
4. CCOC(=O)c1[nH]ncc1CN1CCCC(C(=O)c2cc(Cl)ccc2OC)C1 (centres unmarked)
5. COCCn1c(=N)c(S(=O)(=O)c2ccc(Br)cc2)cc2c(=O)n3ccccc3nc21
6. COc1ccc(F)c(CN(C)CC2CCCN(CCc3ccc(F)cc3)C2)c1 (centres unmarked)
7. Cc1ccc(OC2CCN(C(=O)C3CCC(=O)N(C4CC4)C3)CC2)cc1 (centres unmarked)
8. CCCCC(=O)Nc1cccc(NC(=O)c2ccc3c(c2)OCO3)c1

(A)
33.9
-78.1
-46.7
-71.1
-44.3
-73.4
-15.8
6.43

State the recorded hERG current change (%, negative = inhibition) at 10uM for every item in the following list.
1. Cc1ccc(C(=O)NC(=S)NCCN2CCOCC2)cc1
2. COCCn1c(=N)c(C(=O)NCc2ccco2)cc2c(=O)n3cc(C)ccc3nc21
3. CCOC(=O)C1=NN(c2ccccc2)C(c2ccccc2)CC1=O (centres unmarked)
4. O=C(Nc1ccc(CN2CCCCC2)cc1)c1cccc(F)c1
5. CN(C)c1ccc(C2Nc3ccccc3C(=O)N2NS(C)(=O)=O)cc1 (centres unmarked)
6. CCc1c(C)nc2cc(-c3cccc(Br)c3)[nH]n2c1=O
7. O=C(Cc1ccc(NC2=NC3CS(=O)(=O)CC3S2)cc1)NCc1ccccc1Cl (centres unmarked)

(A)
1: 23.3; 2: -82.1; 3: 5.31; 4: -40; 5: 14.2; 6: -3.6; 7: 6.5

State recorded hERG current change (%, negative = inhibition) at 10uM for all listed compounds.
1. O=C(NC(=S)Nc1ccc(CN2CCCCC2)cc1)c1cccc(OCc2ccccc2)c1
2. CCOc1ccc(OCc2cccc(C(=O)N(CC)CC)c2)cc1

(A)
-5.83
-67.6

Batch of 5 compounds: report hERG current change (%, negative = inhibition) at 10uM for each.
1. COc1ccc(/C=C(/NC(=O)c2ccccc2)C(=O)NCCN2CCOCC2)cc1OC
2. CCCCOC(=O)Nc1cc(Cl)ccc1C
3. O=C(NCCN1CCOCC1)/C(=C/c1ccccc1)NC(=O)c1ccccc1
4. Cc1ccc(C(=O)N/C(=C\c2ccccc2)C(=O)NCCN2CCOCC2)cc1
5. CCOc1ccc(OCc2cccc(C(=O)O)c2)cc1

(A)
1: 11.6; 2: 1.24; 3: -16.4; 4: -62.4; 5: 8.48

* * *

Molecular target: human ether-à-go-go-related gene (hERG) potassium channel (human);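 also: peak tail current of the secondary pulse compared with the same well before compound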
Assay: primary screen, population patch clamp on CHO cells stably expressing hERG; higher = less effect of the substance
Out of some 310,000 compounds screened, about 14,000 (4.5%) showed an effect of 50% or more. Effects have a minus sign here. This is one part of a sample in which strong results are shown more often than they occur.
Exercise: for every item that follows, state its recorded hERG current change (%, negative = inhibition) at 10uM.
State the value, then name its unit.

[[record]]
molecule = "NC(=O)COC(=O)CC(NC(N)=O)c1ccc(Cl)cc1 (stereo not shown)"
recorded_measurement = "17.6%"

[[record]]
molecule = "Nn1c(SCC(=O)NC2CCS(=O)(=O)C2)nnc1-c1cccs1 (stereo not shown)"
recorded_measurement = "16.7%"

[[record]]
molecule = "Cc1ccc(Cn2nnnc2CN2CCC(n3nnc4cc(C(F)(F)F)ccc43)CC2)cc1"
recorded_measurement = "2.84%"


Please go through the list and note hERG current change (%, negative = inhibition) at 10uM for each molecule.
1. CN(C(=O)CSc1ncc(C(F)(F)F)cc1Cl)c1c(N)n(Cc2ccccc2)c(=O)[nH]c1=O
2. Cc1ccc(NC(=O)CSc2nc3ccccc3c3nc(CCn4cncc4C)nn23)c(C)c1
3. COc1cccc(NC(=O)COC(=O)CC(NC(N)=O)c2ccc(Cl)cc2)c1 (stereo not shown)
4. COc1ccc(CCNC(=O)c2ccc3nc(-c4ccco4)c(-c4ccco4)nc3c2)cc1OC
5. C1CCN(Cc2nnnn2C2CCCC2)CC1
6. Cc1ccccc1NC(=O)CSc1nc2ccccc2c(=O)n1C
7. CCOc1ccccc1NC(=O)COC(=O)CC(NC(N)=O)c1ccc(Cl)cc1 (stereo not shown)

(A)
1. 8.25%
2. 2.77%
3. -2.18%
4. -0.346%
5. 11.4%
6. 1.39%
7. -68.4%

* * *

Target: human ether-à-go-go-related gene (hERG) potassium channel (human);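 also: peak tail current of the secondary pulse compared with the same well before compound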
Assay: primary screen, population patch clamp on CHO cells stably expressing hERG; higher = less effect of the substance
The campaign covered roughly 310,000 compounds. About 14,000 (4.5%) showed an effect of 50% or more. The effect is printed as a negative number. For the sample, strong results were picked, then their nearest neighbours and some compounds at random.
measurement kind: hERG current change (%, negative = inhibition) at 10uM (%)
One number for each entry, in %.

Guide cases for hERG current change (%, negative = inhibition) at 10uM, answers given:
[[record]]
compound = "CCC(C(=O)NC1CCCCC1)N(C(=O)c1snc(C(N)=O)c1N)c1ccc(OC)cc1OC (stereo not shown)"
recorded_measurement = -69.3

[[record]]
compound = "CCOCCCN(C(=O)c1snc(C(N)=O)c1N)C(C(=O)NC(C)(C)C)c1ccc(Cl)cc1 (stereo not shown)"
recorded_measurement = -33.1

[[record]]
compound = "CCOCCCN(C(=O)c1snc(C(N)=O)c1N)C(C(=O)NC1CCCC1)c1ccc(OC)cc1 (stereo not shown)"
recorded_measurement = -60.5


The record that follows has no hERG current change (%, negative = inhibition) at 10uM shown yet.
(Q) # query: hERG current change (%, negative = inhibition) at 10uM | item CCOCCCN(C(=O)c1snc(C(N)=O)c1N)C(C(=O)NC1CCCC1)c1ccc(F)cc1 (stereo not shown) | system: human ether-à-go-go-related gene (hERG) potassium channel (human);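 also: peak tail current of the secondary pulse compared with the same well before compound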
(A) -12

* * *

Target: human ether-à-go-go-related gene (hERG) potassium channel (human, UniProt Q12809);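 also: peak tail current of the secondary pulse compared with the same well before compound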
Experiment: primary screen, population patch clamp on CHO cells stably expressing hERG; higher = less effect of the substance
Description: Briefly, Chinese hamster ovary (CHO) cells stably expressing the hERG channel were dislodged from tissue culture flasks and dispensed into PPC plates. […] During the recording, background leak currents were estimated by a 100 ms step to -80 mV from an initial holding potential of -70 mV and subtracted from the subsequent current measurement. The campaign was conducted in two phases using slight differences in recording protocol. […]
In all, about 310,000 compounds went through this assay and about 14,000 (4.5%) showed an effect of 50% or more. The effect is printed as a negative number. Shown is part of a subset that was picked to be rich in strong results.
measurement kind: hERG current change (%, negative = inhibition) at 10uM (%)
Numbers only, in %.

Answered examples (4):
[[record]]
compound = "O=C(N/N=C/c1cn(-c2ccccc2)nc1-c1cc2ccccc2o1)c1c[nH]c2ccccc12"
subject_of_test = "human ether-à-go-go-related gene (hERG) potassium channel (human, UniProt Q12809)"
value_unit = "%"
recorded_measurement = 13.2

[[record]]
compound = "Cc1ccc(NC(=O)NCC2CCN(Cc3cccc(Cl)c3)CC2)cc1Cl"
subject_of_test = "human ether-à-go-go-related gene (hERG) potassium channel (human, UniProt Q12809)"
value_unit = "%"
recorded_measurement = -19.7

[[record]]
compound = "CCOC(=O)c1sc(=NC(=O)c2cccc(C)c2)n(C)c1C"
subject_of_test = "human ether-à-go-go-related gene (hERG) potassium channel (human, UniProt Q12809)"
value_unit = "%"
recorded_measurement = 8.38

[[record]]
compound = "Cc1ccc(-c2nnc3n2N=C(c2ccccc2)CS3)cc1"
subject_of_test = "human ether-à-go-go-related gene (hERG) potassium channel (human, UniProt Q12809)"
value_unit = "%"
recorded_measurement = 3.15


Go through the list and state hERG current change (%, negative = inhibition) at 10uM for each entry.
1. Cc1ccc(Nc2nc(Oc3ccc(OCc4ccccc4)nn3)nc(N3CCOCC3)n2)cc1
2. CCc1ccc(NC(=O)NCC2CCN(Cc3cccc(Cl)c3)CC2)cc1
3. Oc1ccccc1/C=N/c1c(-c2ccco2)nc2ccccn12
4. O=C(NCC1CCN(Cc2cccc(Cl)c2)CC1)Nc1ccc(Cl)cc1
5. CCc1ccc(NC(=O)NCC2CCN(c3ccc(OC)cc3)C2)cc1 (stereo not shown)

(A)
[3.53, -82.9, -4.17, -76.2, -6.79]

(Q) I would be grateful if you could share the reported hERG current change (%, negative = inhibition) at 10uM for CS(=O)(=O)NCC(c1cccnc1)N1CCN(c2ccccc2F)CC1 (stereo not shown) .
(A) -9.77
